Hey, just so you know, these numbers are from ChEMBL document CHEMBL4414651.

Recorded ΔTm for the following compounds
- TARGET OF ASSAY: WD repeat-containing protein 5 (Homo sapiens)
- ASSAY TEXT: Binding affinity to N-terminal FLAG-tagged human full-length WDR5 […] assessed as change in melting temperature at 10 uM by differential scanning fluorimetry
RESULT TYPE: ΔTm (°C)

MOLECULAR STRING: N#CC1(c2cc(NS(=O)(=O)c3cc(Br)ccc3O)c(O)c(C(=O)O)c2)CCC1
RECORDED VALUE: 3.9
--
MOLECULAR STRING: O=C(O)c1cc(S(F)(F)(F)(F)F)cc(NS(=O)(=O)c2cc(Br)cc(Cl)c2O)c1O
RECORDED VALUE: 8.42
--
MOLECULAR STRING: O=C(O)c1cc(Cl)cc(NS(=O)(=O)c2cc(Br)cc(Cl)c2O)c1O
RECORDED VALUE: 4.05
--
MOLECULAR STRING: N#CC1(c2ccc(O)c(NS(=O)(=O)c3cc(Br)ccc3O)c2)CCC1
RECORDED VALUE: 2.63
--
MOLECULAR STRING: CNC(=O)c1cc(C2(C#N)CCC2)cc(NS(=O)(=O)c2cc(Br)cc(Cl)c2O)c1O
RECORDED VALUE: 5.53

* * *

- Organism: Homo sapiens
- ASSAY TEXT: Inhibition of human MLL1/WDR5/RBBP5/ASH2L/DPY30 complex assessed as reduction in histone methyl-transferase activity using H3-peptide as substrate
Calls of active or inactive are those of the source. The rule behind the calls is not given here.

MOLECULAR STRING: CNC(=O)c1c(O)c(NS(=O)(=O)c2cc(Br)ccc2O)cc(C2CC2)c1F
inhibition: Active
//
MOLECULAR STRING: N#CC1(c2ccc(O)c(NS(=O)(=O)c3cc(Br)ccc3O)c2)CCC1
inhibition: Active
//
MOLECULAR STRING: O=C(O)c1c(O)c(NS(=O)(=O)c2cc(Br)cc(Cl)c2O)cc(C2CC2)c1F
inhibition: Active
//
MOLECULAR STRING: CNC(=O)c1cc(C2(C#N)CCC2)cc(NS(=O)(=O)c2cc(Br)ccc2O)c1O
inhibition: Active
//
MOLECULAR STRING: CS(=O)(=O)c1cc(Cl)cc(NS(=O)(=O)c2cc(Br)cc(Cl)c2O)c1O
inhibition: Active
//
MOLECULAR STRING: CNC(=O)c1cc(C2(C#N)CCC2)cc(NS(=O)(=O)c2cc(Br)cc(Cl)c2O)c1O
inhibition: Active
//
MOLECULAR STRING: CS(=O)(=O)c1cc(Cl)cc(NS(=O)(=O)c2cc(Br)ccc2O)c1O
inhibition: Active
//
MOLECULAR STRING: O=C(O)c1cc(NS(=O)(=O)c2cc(Br)cc(Cl)c2O)cc(S(F)(F)(F)(F)F)c1
inhibition: Active
//
MOLECULAR STRING: COc1ccc(Br)cc1S(=O)(=O)Nc1cc(Cl)ccc1O
inhibition: Active
//
MOLECULAR STRING: CNC(=O)c1cc(Cl)cc(NS(=O)(=O)c2cc(Br)ccc2O)c1O
inhibition: Active
//
MOLECULAR STRING: N#CC1(c2cc(NS(=O)(=O)c3cc(Br)cc(Cl)c3O)c(O)c(C(=O)O)c2)CCC1
inhibition: Active
//
MOLECULAR STRING: CNC(=O)c1c(O)c(NS(=O)(=O)c2cc(Br)cc(Cl)c2O)cc(C2CC2)c1F
inhibition: Active
//
MOLECULAR STRING: O=S(=O)(Nc1cc(S(F)(F)(F)(F)F)ccc1O)c1cc(Br)ccc1O
inhibition: Active
//
MOLECULAR STRING: O=C(O)c1c(O)c(NS(=O)(=O)c2cc(Br)ccc2O)cc(C2CC2)c1F
inhibition: Active
